Origin of values: ChEMBL document CHEMBL3507680

# key: entry, value: cytotoxicity at 70.5 h
Test: Human HepG2 cell viability assay in 384 well format
Format: toxicity, cell-based
Set-up: dose 125 nL, time 70.5 hour; concentration not given beside the values
Conditions: HepG2 cells, read-out: Inhibition
REPORTED_PROPERTY: cytotoxicity at 70.5 h (%)

• CN(C)c1ccc(CC(=O)N2C[C@H](C3CC3)[C@@H](N)C2)cc1 = 0.366
• OCC1CCCCN1Cc1nc(Cc2ccccc2)no1 (stereo not drawn) = -3.62
• COc1ccc(NC(C)C(=O)N2CCN(c3ncccn3)CC2)cn1 (stereo not drawn) = 2.09
• CC(C)NC(=O)CCNC(=O)Nc1cnn(-c2ccccc2F)c1 = -0.437
• CN(Cc1ccco1)[C@@H]1CN(Cc2ccoc2)C[C@@H]2CCCO[C@@H]21 = -7.61
• CN1CCC(N(CCc2ccccc2)C(=O)c2ccc(CO)cc2)CC1 = -11.1
• COc1ncc(Cl)c(NCc2ccc([S+](C)[O-])cc2)n1 (stereo not drawn) = -0.908
• Cc1ccc(O[C@@H]2C[C@H]3CN(C(=O)c4cccnc4)CCN3C2)cc1 = 9.15
• Cn1cc(-c2c(C#N)c(N)nc3c2CCc2[nH]ccc2-3)cc1C#N = 16.7
• Cc1n[nH]c(C2CN(Cc3nnc(C4CCC4)o3)CCO2)n1 (stereo not drawn) = -1.02
• CN(C(=O)c1cccnc1OCC(F)F)c1ccc2c(c1)CCO2 = -9.98
• O=C(c1cccc2ncccc12)N1CCC(Nc2cccnn2)CC1 = -3.36
• O=C(COCC1CCCO1)N1CCCN(Cc2ccccc2F)CC1 (stereo not drawn) = -5.89
• Cn1nc(C(C)(C)C)cc1NC(=O)Cn1ccccc1=O = -12
• O=C(NCc1ccc2c(c1)OCO2)N1CCCC2(C1)OCCO2 = -7.83
• COCCCNc1nc(CNC(=O)C2CCC2)cc(-c2ccco2)n1 = -5.78
• Cc1nc(CN2CCN(C(=O)c3ccnc(N(C)C)c3)CC2)cs1 = -14.4
• CCOCCC(=O)N1CCc2cccc(S(=O)(=O)N3CCOCC3)c2C1 = -9.19
• COc1ccc(CC(=O)N2CCN(C)c3ncccc3C2)cc1 = 11.6
• Cc1cc(CN(C)Cc2csc(-c3cccs3)n2)n[nH]1 = -1.87
• CCCn1nc(C(=O)N2CCCC2c2noc(C)n2)ccc1=O (stereo not drawn) = -0.244
• O=C(c1cccnc1)N1CCN(c2ccc(-n3cccc3)nn2)CC1 = 0.575
• CC(C)C(=O)N1CCC(n2nc(-c3ccco3)ccc2=O)CC1 = 15.9
